- STUDY SYSTEM: human DGKζ (Homo sapiens (Human))
- Sequence (Q13574 other isoform, or with tags, fused parts or gaps): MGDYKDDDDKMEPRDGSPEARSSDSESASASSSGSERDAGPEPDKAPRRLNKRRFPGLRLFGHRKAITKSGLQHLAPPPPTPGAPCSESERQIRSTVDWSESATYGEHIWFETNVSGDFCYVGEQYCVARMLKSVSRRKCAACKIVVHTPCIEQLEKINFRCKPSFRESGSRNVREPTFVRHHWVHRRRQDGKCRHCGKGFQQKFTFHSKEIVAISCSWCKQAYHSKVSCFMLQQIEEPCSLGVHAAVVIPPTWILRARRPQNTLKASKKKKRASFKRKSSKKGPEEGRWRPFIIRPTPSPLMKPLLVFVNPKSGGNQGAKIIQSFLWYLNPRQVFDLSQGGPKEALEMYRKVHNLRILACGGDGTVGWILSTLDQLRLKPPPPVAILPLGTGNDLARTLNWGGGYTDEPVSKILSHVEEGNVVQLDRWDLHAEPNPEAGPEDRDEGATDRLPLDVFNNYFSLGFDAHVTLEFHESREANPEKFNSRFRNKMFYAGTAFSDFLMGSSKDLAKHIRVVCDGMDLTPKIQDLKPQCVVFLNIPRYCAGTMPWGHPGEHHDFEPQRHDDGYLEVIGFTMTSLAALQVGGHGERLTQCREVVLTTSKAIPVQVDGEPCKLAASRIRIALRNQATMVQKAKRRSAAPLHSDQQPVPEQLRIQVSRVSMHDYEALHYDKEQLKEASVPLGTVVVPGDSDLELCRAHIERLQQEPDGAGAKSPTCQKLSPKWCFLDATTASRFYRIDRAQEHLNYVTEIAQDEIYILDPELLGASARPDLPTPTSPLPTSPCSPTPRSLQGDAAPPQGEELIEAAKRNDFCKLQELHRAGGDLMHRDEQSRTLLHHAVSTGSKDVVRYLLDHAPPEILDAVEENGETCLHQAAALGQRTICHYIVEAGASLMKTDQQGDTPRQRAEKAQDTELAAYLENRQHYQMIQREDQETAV
- ASSAY INFO: Human DGKζ kinase activity inhibition assay (ADP-Glo)
- Format: biochemical
- STATED CONDITIONS: in vitro human DGKζ kinase activity inhibition assay; read-out: IC50
Each record here notes measured IC50.
Your answer is read as nM, so omit the unit and give the number.

See these solved cases before continuing.
// returns reported IC50 for input COCCNC(=O)COc1ccc(C(=O)c2sc(N(c3ccc(F)cc3)C(C)C(N)=O)nc2N)cc1 (racemic) 701

// returns reported IC50 for input CC(C(N)=O)N(c1ccc(F)cc1)c1nc(N)c(C(=O)c2ccc([N+](=O)[O-])cc2)s1 (racemic) 20

Others:
// returns reported IC50 for input CC(C(N)=O)N(c1ccc(F)c(F)c1)c1nc(N)c(C(=O)c2ccc(NC(=O)OCc3ccccc3)cc2)s1 (racemic) [Example 167] 2

// returns reported IC50 for input CC(C(N)=O)N(c1ccc(N(C)C)cc1)c1nc(N)c(C(=O)c2ccccc2)s1 (racemic) 935

// returns reported IC50 for input CC(C(N)=O)N(c1ccc(Cl)c(F)c1)c1nc(N)c(C(=O)c2ccc(OC(F)F)nc2)s1 (racemic) [Example 164] 7

// returns reported IC50 for input COCCNC(=O)c1ccc(C(=O)c2sc(N(c3ccc(Cl)c(F)c3)C(C)C(N)=O)nc2N)cc1 (racemic) 39

// returns reported IC50 for input CC(C(N)=O)N(c1ccc(F)cc1)c1nc(N)c(C(=O)c2ccc(N3CCC(C)(C#N)CC3)nc2)s1 (single isomer, unassigned; enantiomer 1) [Example 285.1] 34

// returns reported IC50 for input CC(C(N)=O)N(c1ccc(N(C)C)c(Cl)c1)c1nc(N)c(C(=O)c2ccccc2)s1 (racemic) 357

// returns reported IC50 for input CCOC(=O)COc1ccc(C(=O)c2sc(N(c3ccc(F)cc3)C(C)C(N)=O)nc2N)cc1 (racemic) [Example 81] 8.71

// returns reported IC50 for input CC(C(N)=O)N(c1ccc(Cl)c(F)c1)c1nc(N)c(C(=O)c2ccc(C(=O)NCCOC(F)F)cc2)s1 (racemic) 13

// returns reported IC50 for input CC(C(N)=O)N(c1ccc(Cl)c(F)c1)c1nc(N)c(C(=O)c2ccc(O)cc2)s1 (single isomer, unassigned; enantiomer 2) [Example 290] 936

// returns reported IC50 for input CC(C(N)=O)N(c1ccc(F)cc1)c1nc(N)c(C(=O)c2ccc(OCC(=O)N(C)C3CCN(C)CC3)cc2)s1 (racemic) 329

// returns reported IC50 for input CC(C(N)=O)N(c1ccc(Cl)cc1)c1nc(N)c(C(=O)c2ccc(OC(F)F)cc2)s1 (single isomer, unassigned) [Example 47.1] 1020

// returns reported IC50 for input CC(C(N)=O)N(c1cnn(C)c1)c1nc(N)c(C(=O)c2ccccc2)s1 (racemic) [Example 78] 7220

// returns reported IC50 for input CC(C(N)=O)N(c1ccc(F)c(F)c1)c1nc(N)c(C(=O)c2ccccc2)s1 (racemic) 38.7

// returns reported IC50 for input CC(C(N)=O)N(c1ccc(F)cc1)c1nc(N)c(C(=O)c2ccc(OC(F)F)cc2)s1 (racemic) [Example 44] 8.83

// returns reported IC50 for input CC(C(N)=O)N(c1ccccc1)c1nc(N)c(C(=O)c2ccccc2)s1 (racemic) 403

====

- STUDY SYSTEM: human DGKζ (Homo sapiens (Human))
- ASSAY INFO: Human DGKζ kinase activity inhibition assay (ADP-Glo)
- Assay type: biochemical
- STATED CONDITIONS: in vitro human DGKζ kinase activity inhibition assay; read-out: IC50
Label MET when IC50 < 30 nM; otherwise NOT MET.

Record excerpt, results attached:
Lab note: confirm whether the reported IC50 for this molecule is below 30 nM, equality not counting. molecule: CC(C(N)=O)N(c1ccc(F)cc1)c1nc(N)c(C(=O)c2ccc(N3CCC(C(F)(F)F)CC3)nc2)s1 (racemic) MET

Lab note: confirm whether the reported IC50 for this molecule is below 30 nM, equality not counting. molecule: COc1ccc(C(=O)c2sc(N(c3ccc(F)c(F)c3)C(C)C(N)=O)nc2N)cc1 (racemic) MET

Lab note: confirm whether the reported IC50 for this molecule is below 30 nM, equality not counting. molecule: CC(C(N)=O)N(c1ccc(OC(F)F)c(F)c1)c1nc(N)c(C(=O)c2ccc(OC(F)F)cc2)s1 (racemic) MET

Lab note: confirm whether the reported IC50 for this molecule is below 30 nM, equality not counting. molecule: Cc1ccc(C(=O)c2sc(N(c3ccc(F)cc3)C(C)C(N)=O)nc2N)cn1 (racemic) NOT MET

Lab note: confirm whether the reported IC50 for this molecule is below 30 nM, equality not counting. molecule: Cc1cc(C(=O)c2sc(N(c3ccc(F)cc3)C(C)C(N)=O)nc2N)ccn1 (single isomer, unassigned) [Example 187.2] NOT MET

Lab note: confirm whether the reported IC50 for this molecule is below 30 nM, equality not counting. molecule: CC(C(N)=O)N(c1ccc(F)c(F)c1)c1nc(N)c(C(=O)c2ccc(C(F)(F)F)nc2)s1 (single isomer, unassigned) [Example 53.1] MET

Others:
Lab note: confirm whether the reported IC50 for this molecule is below 30 nM, equality not counting. molecule: CC(C(N)=O)N(c1ccc(C(F)F)cc1)c1nc(N)c(C(=O)c2ccc(OC(F)F)nc2)s1 (racemic) NOT MET

Lab note: confirm whether the reported IC50 for this molecule is below 30 nM, equality not counting. molecule: CC(C(N)=O)N(c1ccc(C#N)cc1)c1nc(N)c(C(=O)c2ccccc2)s1 (racemic) NOT MET

Lab note: confirm whether the reported IC50 for this molecule is below 30 nM, equality not counting. molecule: Cc1ccccc1N(c1nc(N)c(C(=O)c2ccccc2)s1)C(C)C(N)=O (single isomer, unassigned) [Example 77.1] NOT MET

====

- STUDY SYSTEM: human DGKζ (Homo sapiens (Human))
- ASSAY INFO: Human DGKζ kinase activity inhibition assay (ADP-Glo)
- Assay type: biochemical
- STATED CONDITIONS: in vitro human DGKζ kinase activity inhibition assay; read-out: IC50
QUANTITY: pIC50
# log scale: pIC50 equals minus log10 of the concentration in mol/L

// returns reported pIC50 for input CC(C(N)=O)N(c1ccc(OC(F)F)c(F)c1)c1nc(N)c(C(=O)c2ccc(OC(F)F)nc2)s1 (racemic) [Example 210] 7.16

Others:
// returns reported pIC50 for input CC(C(N)=O)N(c1ccc(F)cc1)c1nc(N)c(C(=O)c2ccc(N3CCC(F)(F)CC3)nc2)s1 (racemic) 7.48

// returns reported pIC50 for input COc1ccc(N(c2nc(N)c(C(=O)c3ccccc3)s2)C(C)C(N)=O)cc1 (racemic) 6.44

// returns reported pIC50 for input CC(C(N)=O)N(c1ccc2c(c1)OC(F)(F)O2)c1nc(N)c(C(=O)c2ccc(Cl)cc2)s1 (racemic) 7.38

// returns reported pIC50 for input CCOC(=O)C(C)(C)Oc1ccc(C(=O)c2sc(N(c3ccc(F)cc3)C(C)C(N)=O)nc2N)cc1 (racemic) [Example 259] 7.72

// returns reported pIC50 for input CC(C(N)=O)N(c1ccc(F)cc1)c1nc(N)c(C(=O)c2ccc(C(=O)NCc3ccccc3)cc2)s1 (racemic) 8.22

// returns reported pIC50 for input CCNC(=O)COc1ccc(C(=O)c2sc(N(c3ccc(F)cc3)C(C)C(N)=O)nc2N)cc1 (racemic) 6.63

// returns reported pIC50 for input COc1ccccc1CNC(=O)COc1ccc(C(=O)c2sc(N(c3ccc(F)cc3)C(C)C(N)=O)nc2N)cc1 (racemic) 7.59

// returns reported pIC50 for input Cc1cccc(NC(=O)COc2ccc(C(=O)c3sc(N(c4ccc(F)cc4)C(C)C(N)=O)nc3N)cc2)c1 (racemic) 8.07

// returns reported pIC50 for input CC(C(N)=O)N(c1ccc(OC(F)F)c(F)c1)c1nc(N)c(C(=O)c2ccccc2)s1 (racemic) 7.06

// returns reported pIC50 for input CCOC(=O)COc1ccc(C(=O)c2sc(N(c3ccc(F)cc3)C(C)C(N)=O)nc2N)cc1 (single isomer, unassigned; enantiomer 1) [Example 81.1] 5.99

// returns reported pIC50 for input CC(C(N)=O)N(c1ccc(F)cc1)c1nc(N)c(C(=O)c2ccc(Br)nc2)s1 (racemic) 6.97

// returns reported pIC50 for input CC(C(N)=O)N(c1ccc(F)c(Cl)c1)c1nc(N)c(C(=O)c2ccncc2)s1 (racemic) [Example 160] 6.73

// returns reported pIC50 for input CC(C(N)=O)N(c1ccc(C(F)F)cc1)c1nc(N)c(C(=O)c2ccc(Cl)cc2)s1 (racemic) 7.52

====

- STUDY SYSTEM: human DGKζ (Homo sapiens (Human))
- ASSAY INFO: Human DGKζ kinase activity inhibition assay (ADP-Glo)
- Format: biochemical
- STATED CONDITIONS: IC50, in vitro human DGKζ kinase activity inhibition assay
- Description: Human DGKζ Kinase Activity Inhibition Assay. Human diacylglycerol kinase zeta (DGKζ) inhibitory activity of compounds of the present invention was quantified employing the human DGKζ kinase activity assay as described in the following paragraphs. In essence, the enzyme activity was measured by quantification of the adenosine-di-phosphate (ADP) generated as a co-product of the enzyme reaction via the “ADP-Glo™ Kinase Assay” kit from the company Promega. […]
QUANTITY: pIC50
# log scale: pIC50 equals minus log10 of the concentration in mol/L

// returns reported pIC50 for input Cc1cccc(N(C)C(=O)COc2ccc(C(=O)c3sc(N(c4ccc(F)cc4)C(C)C(N)=O)nc3N)cc2)c1 (racemic) [Example 140] 7.43
